The reported numbers originate from PubChem BioAssay.

# Tested on: Chordin-like protein 2 (CHRDL2)
# method description: CHRDL2 small-molecule binders, primary screen, biochemical, small-molecule microarray, 635 nm fluorescence (AID 1126);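 also: printed compound slides probed with Chrdl2 protein at 4 µg/mL for 1 h at 4 C; score merges 667 nm emission intensity with signal to noise over three replicate slides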
# experimental setup: small-molecule microarray binding, fluorescence 635 nm; higher = more signal
measured attribute: composite z-score
Write no unit; give the number alone.

Give the measured composite z-score of C=CCC(OC(C)=O)[C@@H]1[C@@H](N(Cc2cc3ccccc3o2)C(=O)Cc2ccc(OC)cc2)c2cc(OCCCO)ccc2N1C(=O)Cc1ccc2ccccc2c1 (stereo not given in full) .
-0.563

Give the measured composite z-score of C=C(COC)C(=O)CC[C@@H](OC(=O)c1cccnc1)c1cccc(OCCO)c1 .
0.423

Give the measured composite z-score of C=CCOC(=O)[C@H]1[C@@H]2C(=O)O[C@@H](c3ccccc3)[C@@H](c3ccccc3)N2[C@@H](c2ccc(OCCOC(=O)[C@@H]3C[C@@H]4C(=O)N[C@@H](CC(C)C)C(=O)N4[C@@H]3c3ccc(O)cc3)cc2)[C@]12C(=O)Nc1ccc(I)cc12 .
1.33

Give the measured composite z-score of COC(=O)c1ccc([C@H](NC(=O)c2ccccc2)[C@]2(C)C[C@H]2C2CCCCC2)cc1 .
-0.941

Give the measured composite z-score of CN(C)CCCCNC(=O)[C@H]1C[C@H]2C(=O)N[C@@H](Cc3ccccc3)C(=O)N2[C@H]1c1cccc(OCCO)c1 .
0.739

====

# Tested on: Lefty1
# method description: Lefty1 binders on small-molecule microarrays, primary screen, biochemical, small-molecule microarray, 635/667 nm fluorescence (AID 1139)
# experimental setup: small-molecule microarray binding, fluorescence 635/667; higher = more signal
Would you mind telling me the reported composite z-score of each entry?
Write no unit; give the number alone.

Give the measured composite z-score of CCCCCCCCCCC(O)C1C=CC2C(=O)N(C)C(=O)C2N1N1CCCCC1 (stereo not given) .
-1.84

Give the measured composite z-score of C[N+](C)(C)CCCCCCNC(=O)[C@@H]1C[C@@H]2C(=O)N[C@@H](Cc3ccccc3)C(=O)N2[C@@H]1c1ccc(O)cc1 .
1.63

Give the measured composite z-score of [N-]=[N+]=NCc1ccccc1C[C@@]1(C(=O)O)N=C(c2ccc(OCCCO)cc2)O[C@@H]1c1ccccc1CN=[N+]=[N-] .
0.594

Give the measured composite z-score of CC(C)C[C@@H]1NC(=O)[C@@H]2C[C@H](C(=O)O)[C@H](c3ccc(O)cc3)N2C1=O .
1.04

Give the measured composite z-score of COC(=O)[C@@]1(Cc2ccc(OC)cc2)[C@H]2c3cc(C(=O)N(C)C)n(Cc4ccsc4Br)c3C[C@H]2CN1C(=O)c1ccccc1 .
-0.538

Give the measured composite z-score of CCCCC(O)C1C=CC2C(=O)NC(=O)C2N1Nc1ccc(Cl)cc1Cl (stereo not given) .
-0.654

Give the measured composite z-score of COc1ccc([Si](C)(C)[C@H]2[C@H](CCO)O[C@@]3(C(=O)N(Cc4ccc(N5CCOC5=O)cc4)c4ccccc43)[C@@H]2C)cc1 .
0.263

Give the measured composite z-score of C=C(/C(=C/C[C@@H](OC(C)=O)c1ccccc1OCCO)c1cc(C(=O)OC)ccc1OC)C(C)C .
0.282

Give the measured composite z-score of COCC(=C=CC[C@@H](O)c1cccc(OCCO)c1)C[C@@H](O)COCc1ccccc1 .
-0.058

Give the measured composite z-score of C=C(COC)/C(=C/C[C@H](OC(=O)c1ccncc1)c1cccc(OCCO)c1)c1cnc2ccccc2c1 .
1.62
